test-target: recombinant human NK3 receptor (Homo sapiens, UniProt P29371)
protocol-description: [3H]SR142801 competition binding assay
experimental-conditions: [3H]SR142801, membranes from HEK293 cells transiently expressing recombinant human NK3 receptor; read-out: hNK3 Ki
Method: [^3H]SR142801 Competition Binding Assay hNK3 receptor binding experiment were performed using [^3H]SR142801 (Catalog No. TRK1035, specific activity: 74.0 Ci/mmol, Amersham, GE Healthcare UK limited, Buckinghamshire, UK) and membrane isolated from HEK293 cells transiently expressing recombinant human NK3 receptor. […] Nonspecific binding was measured in the presence of 10 μM SB222200 for both radioligands. […]
pKi: −log10 of the molar value.
endpoint-name: pKi

The following compounds have reported results that may help.
CC(NC(=O)C(C)(CCN1CCCN(S(C)(=O)=O)CC1)c1ccc(Cl)c(Cl)c1)c1ccc(Cl)cc1 (centres unmarked)    6.92
CN(Cc1ccc(Cl)c(Cl)c1)C(=O)C(C)(CCN1CCCN(S(C)(=O)=O)CC1)c1ccc(Cl)c(Cl)c1 (centres unmarked)    8.00
CC(CCN1CCN(S(C)(=O)=O)CC1)(C(=O)N[C@@H](CO)c1ccccc1)c1ccc(Cl)c(Cl)c1 (single isomer, unassigned) [Example 129]    6.48
CC(CCN1CCN(S(C)(=O)=O)CC1)(C(=O)NCc1ccccc1OC(F)(F)F)c1ccc(Cl)c(Cl)c1 (centres unmarked)    6.37
C[C@@H]1CN(CCC(C)(C(=O)NCc2cccc(OC(F)(F)F)c2)c2ccc(Cl)c(Cl)c2)CCN1S(C)(=O)=O (some centres unmarked)    7.84
C[C@H]1CN(CCC(C)(C(=O)N(C)Cc2ccc(F)c(C(F)(F)F)c2)c2ccc(Cl)c(Cl)c2)CCN1S(C)(=O)=O (some centres unmarked)    7.77
CN(Cc1ccc(C(F)(F)F)nc1)C(=O)C(C)(CCN1CCCN(S(C)(=O)=O)CC1)c1ccc(Cl)c(Cl)c1 (centres unmarked)    6.56
CN(Cc1cccc(F)c1)C(=O)C(C)(CCN1CCN(S(C)(=O)=O)CC1)c1ccc(Cl)c(Cl)c1 (centres unmarked)    6.65
CC(NC(=O)C(C)(CCN1CCN(S(C)(=O)=O)CC1)c1ccc(Cl)c(Cl)c1)c1ccc(F)cc1 (centres unmarked)    6.64
COc1cc(CN(C)C(=O)C(C)(CCN2CCN(S(C)(=O)=O)[C@@H](C)C2)c2ccc(Cl)c(Cl)c2)ccc1OC(F)F (some centres unmarked)    6.56

A: CC(CCN1CCCN(S(C)(=O)=O)CC1)(C(=O)NCc1cc(C(F)(F)F)cc(C(F)(F)F)c1)c1ccc(Cl)c(Cl)c1 (centres unmarked)
B: C[C@H]1CN(CCC(C)(C(=O)N(C)Cc2ccc(C(F)(F)F)nc2)c2ccc(Cl)c(Cl)c2)CCN1S(C)(=O)=O (some centres unmarked)
C: CN(Cc1cccc(F)c1)C(=O)C(C)(CCN1CCCN(S(C)(=O)=O)CC1)c1ccc(Cl)c(Cl)c1 (centres unmarked)
D: CC(CCN1CCN(S(C)(=O)=O)CC1)(C(=O)N[C@@H](CO)c1ccccc1)c1ccc(Cl)c(Cl)c1 (single isomer, unassigned) [Example 128]
Order the items by recorded pKi; the first position goes to the largest value. # output: labels, in the requested order
D, C, A, B

###

test-target: recombinant human NK3 receptor (Homo sapiens, UniProt P29371)
protocol-description: [3H]SR142801 competition binding assay
experimental-conditions: [3H]SR142801, membranes from HEK293 cells transiently expressing recombinant human NK3 receptor; read-out: hNK3 Ki
pKi: −log10 of the molar value.
endpoint-name: pKi

Answered examples (3):
C[C@H]1CN(CCC(C)(C(=O)N(C)Cc2ccc(C(F)(F)F)c(F)c2)c2ccc(Cl)c(Cl)c2)CCN1S(C)(=O)=O (stereo partly shown)    7.72
CN(Cc1cccc(C(F)(F)F)c1)C(=O)C(C)(CCN1CCCN(S(C)(=O)=O)CC1)c1ccc(Cl)c(Cl)c1 (stereo not shown)    7.74
COc1cc(CN(C)C(=O)C(C)(CCN2CCN(S(C)(=O)=O)CC2)c2ccc(Cl)c(Cl)c2)ccc1OC(F)F (stereo not shown)    6.56

I: COc1cc(CN(C)C(=O)C(C)(CCN2CCN(S(C)(=O)=O)[C@H](C)C2)c2ccc(Cl)c(Cl)c2)ccc1OC(F)F (stereo partly shown)
II: CC(CCN1CCN(S(C)(=O)=O)CC1)(C(=O)N[C@@H](CO)c1ccc(Cl)cc1)c1ccc(Cl)c(Cl)c1 (stereo partly shown)
III: C[C@@H]1CN(CCC(C)(C(=O)N(C)Cc2ccc(C(F)(F)F)c(F)c2)c2ccc(Cl)c(Cl)c2)CCN1S(C)(=O)=O (stereo partly shown)
IV: C[C@@H]1CN(CCC(C)(C(=O)N(C)Cc2cccc(Cl)c2)c2ccc(Cl)c(Cl)c2)CCN1S(C)(=O)=O (stereo partly shown)
Ascending by pKi, please. Use the labels to give the ranking in the order requested.
I, IV, II, III
(I: 6.67, IV: 6.99, II: 7.40, III: 7.78)

###

test-target: recombinant human NK3 receptor (Homo sapiens)
protocol-description: [3H]SR142801 competition binding assay
experimental-conditions: [3H]SR142801, membranes from HEK293 cells transiently expressing recombinant human NK3 receptor; read-out: hNK3 Ki
endpoint-name: Ki (nM)

Field: example entries. Status: answers known.
COc1ccc(CN(C)C(=O)C(C)(CCN2CCN(S(C)(=O)=O)[C@@H](C)C2)c2ccc(Cl)c(Cl)c2)cc1F (some centres unmarked)    216
CC(CCN1CCCN(S(C)(=O)=O)CC1)(C(=O)NCc1cc(F)ccc1C(F)(F)F)c1ccc(Cl)c(Cl)c1 (centres unmarked)    575
CN(Cc1cccc(C(F)(F)F)c1)C(=O)C(C)(CCN1CCN(S(C)(=O)=O)CC1)c1ccc(Cl)c(Cl)c1 (centres unmarked)    78.4
CN(Cc1ccc(C(F)(F)F)cc1)C(=O)C(CCN1CCN(S(C)(=O)=O)CC1)c1ccc(Cl)c(Cl)c1 (centres unmarked)    136
CN(Cc1ccc(Cl)cc1)C(=O)C(CCN1CCN(S(C)(=O)=O)CC1)c1ccc(Cl)c(Cl)c1 (centres unmarked)    171

1: CC(CCN1CCN(S(C)(=O)=O)CC1)(C(=O)NCc1cccc(OC(F)(F)F)c1)c1ccc(Cl)c(Cl)c1 (centres unmarked)
2: Cc1ccc(CN(C)C(=O)C(C)(CCN2CCN(S(C)(=O)=O)[C@@H](C)C2)c2ccc(Cl)c(Cl)c2)cc1 (some centres unmarked)
Which gives the smaller Ki number: 1 or 2 ? API: response body contains the label of the selected item.
2

###

test-target: recombinant human NK3 receptor (Homo sapiens)
protocol-description: [3H]SR142801 competition binding assay
experimental-conditions: [3H]SR142801, membranes from HEK293 cells transiently expressing recombinant human NK3 receptor; read-out: hNK3 Ki
endpoint-name: Ki (nM)

a: CC(CCN1CCCN(S(C)(=O)=O)CC1)(C(=O)NCc1ccc(C(F)(F)F)nc1)c1ccc(Cl)c(Cl)c1 (stereo not shown)
b: CC(CCN1CCCN(S(C)(=O)=O)CC1)(C(=O)NCc1ccc(Cl)c(Cl)c1)c1ccc(Cl)c(Cl)c1 (stereo not shown)
c: CC(NC(=O)C(C)(CCN1CCN(S(C)(=O)=O)[C@@H](C)C1)c1ccc(Cl)c(Cl)c1)c1ccc(Cl)c(Cl)c1 (stereo partly shown)
d: CC(CCN1CCN(S(C)(=O)=O)CC1)(C(=O)NCc1ccc(OC(F)(F)F)cc1)c1ccc(Cl)c(Cl)c1 (stereo not shown)
Rank the items in ascending order with respect to Ki. API: response body holds the labels in the requested order.
c, b, d, a
(c: 16.2 nM, b: 39.9 nM, d: 146 nM, a: 949 nM)

###

test-target: recombinant human NK3 receptor (Homo sapiens, UniProt P29371)
Sequence (P29371 1-465): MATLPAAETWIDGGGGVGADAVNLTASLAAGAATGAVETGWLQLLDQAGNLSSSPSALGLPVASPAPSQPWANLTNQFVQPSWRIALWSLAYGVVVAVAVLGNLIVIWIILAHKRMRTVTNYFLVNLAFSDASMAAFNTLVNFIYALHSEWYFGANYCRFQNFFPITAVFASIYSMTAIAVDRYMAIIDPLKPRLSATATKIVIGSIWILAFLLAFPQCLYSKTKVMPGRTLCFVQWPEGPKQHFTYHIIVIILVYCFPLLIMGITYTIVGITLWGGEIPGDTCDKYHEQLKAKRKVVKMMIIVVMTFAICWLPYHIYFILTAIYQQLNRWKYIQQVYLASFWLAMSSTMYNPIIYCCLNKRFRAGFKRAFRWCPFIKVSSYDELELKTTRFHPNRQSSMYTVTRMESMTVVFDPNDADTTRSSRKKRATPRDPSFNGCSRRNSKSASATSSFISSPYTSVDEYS
protocol-description: [3H]SR142801 competition binding assay
experimental-conditions: [3H]SR142801, membranes from HEK293 cells transiently expressing recombinant human NK3 receptor; read-out: hNK3 Ki
endpoint-name: Ki (nM)

The cases that follow already have their Ki on record.
C[C@H]1CN(CCC(C)(C(=O)NCc2ccc(Cl)c(F)c2)c2ccc(Cl)c(Cl)c2)CCN1S(C)(=O)=O (stereo partly shown)    94.2
CC(CCN1CCN(S(C)(=O)=O)CC1)(C(=O)NC(c1ccc(F)cc1)C(F)(F)F)c1ccc(Cl)c(Cl)c1 (stereo not shown)    196
COc1cccc(CN(C)C(=O)C(C)(CCN2CCN(S(C)(=O)=O)[C@@H](C)C2)c2ccc(Cl)c(Cl)c2)c1 (stereo partly shown)    611
CN(Cc1ccc(F)c(C(F)(F)F)c1)C(=O)C(C)(CCN1CCCN(S(C)(=O)=O)CC1)c1ccc(Cl)c(Cl)c1 (stereo not shown)    9.2
C[C@H]1CN(CCC(C)(C(=O)NCc2ccc(C(F)(F)F)nc2)c2ccc(Cl)c(Cl)c2)CCN1S(C)(=O)=O (stereo partly shown)    906

P: C[C@@H]1CN(CCC(C)(C(=O)NCc2ccc(C(F)(F)F)nc2)c2ccc(Cl)c(Cl)c2)CCN1S(C)(=O)=O (stereo partly shown)
Q: CC(NC(=O)C(C)(CCN1CCN(S(C)(=O)=O)[C@@H](C)C1)c1ccc(Cl)c(Cl)c1)c1ccc(Cl)cc1 (stereo partly shown)
// pick larger Ki from pair: P vs Q Respond using the label that marks the chosen record.
P
(P: 582 nM, Q: 67.4 nM)
